These measurements were taken from patent US10907197B2.

Below is a list of entries, each paired with its recorded IC50 value.
molecular target: Q46 protein aggregates (Homo sapiens, UniProt P42858, INS38QQQQQQQQQQQQQQQQQQQQQQQQQ); construct: 33 μM GST-Q46 was incubated with 150 μg/mL thrombin in assay buffer (150 mM NaCl, 50 mM Tris pH 8.0) and 2 mM CaCl2 for 16 hr at 37° C; fused on or other part: GST at the N-terminus; experiment: Q46 Radioligand Binding Assay (RBA); settings: displacement of 10 nM [3H3]MK-3328 from 5 μM Q46 protein aggregates, 60 min at 37° C.
Sequence (P42858 with tags, fused parts or gaps with the stated changes): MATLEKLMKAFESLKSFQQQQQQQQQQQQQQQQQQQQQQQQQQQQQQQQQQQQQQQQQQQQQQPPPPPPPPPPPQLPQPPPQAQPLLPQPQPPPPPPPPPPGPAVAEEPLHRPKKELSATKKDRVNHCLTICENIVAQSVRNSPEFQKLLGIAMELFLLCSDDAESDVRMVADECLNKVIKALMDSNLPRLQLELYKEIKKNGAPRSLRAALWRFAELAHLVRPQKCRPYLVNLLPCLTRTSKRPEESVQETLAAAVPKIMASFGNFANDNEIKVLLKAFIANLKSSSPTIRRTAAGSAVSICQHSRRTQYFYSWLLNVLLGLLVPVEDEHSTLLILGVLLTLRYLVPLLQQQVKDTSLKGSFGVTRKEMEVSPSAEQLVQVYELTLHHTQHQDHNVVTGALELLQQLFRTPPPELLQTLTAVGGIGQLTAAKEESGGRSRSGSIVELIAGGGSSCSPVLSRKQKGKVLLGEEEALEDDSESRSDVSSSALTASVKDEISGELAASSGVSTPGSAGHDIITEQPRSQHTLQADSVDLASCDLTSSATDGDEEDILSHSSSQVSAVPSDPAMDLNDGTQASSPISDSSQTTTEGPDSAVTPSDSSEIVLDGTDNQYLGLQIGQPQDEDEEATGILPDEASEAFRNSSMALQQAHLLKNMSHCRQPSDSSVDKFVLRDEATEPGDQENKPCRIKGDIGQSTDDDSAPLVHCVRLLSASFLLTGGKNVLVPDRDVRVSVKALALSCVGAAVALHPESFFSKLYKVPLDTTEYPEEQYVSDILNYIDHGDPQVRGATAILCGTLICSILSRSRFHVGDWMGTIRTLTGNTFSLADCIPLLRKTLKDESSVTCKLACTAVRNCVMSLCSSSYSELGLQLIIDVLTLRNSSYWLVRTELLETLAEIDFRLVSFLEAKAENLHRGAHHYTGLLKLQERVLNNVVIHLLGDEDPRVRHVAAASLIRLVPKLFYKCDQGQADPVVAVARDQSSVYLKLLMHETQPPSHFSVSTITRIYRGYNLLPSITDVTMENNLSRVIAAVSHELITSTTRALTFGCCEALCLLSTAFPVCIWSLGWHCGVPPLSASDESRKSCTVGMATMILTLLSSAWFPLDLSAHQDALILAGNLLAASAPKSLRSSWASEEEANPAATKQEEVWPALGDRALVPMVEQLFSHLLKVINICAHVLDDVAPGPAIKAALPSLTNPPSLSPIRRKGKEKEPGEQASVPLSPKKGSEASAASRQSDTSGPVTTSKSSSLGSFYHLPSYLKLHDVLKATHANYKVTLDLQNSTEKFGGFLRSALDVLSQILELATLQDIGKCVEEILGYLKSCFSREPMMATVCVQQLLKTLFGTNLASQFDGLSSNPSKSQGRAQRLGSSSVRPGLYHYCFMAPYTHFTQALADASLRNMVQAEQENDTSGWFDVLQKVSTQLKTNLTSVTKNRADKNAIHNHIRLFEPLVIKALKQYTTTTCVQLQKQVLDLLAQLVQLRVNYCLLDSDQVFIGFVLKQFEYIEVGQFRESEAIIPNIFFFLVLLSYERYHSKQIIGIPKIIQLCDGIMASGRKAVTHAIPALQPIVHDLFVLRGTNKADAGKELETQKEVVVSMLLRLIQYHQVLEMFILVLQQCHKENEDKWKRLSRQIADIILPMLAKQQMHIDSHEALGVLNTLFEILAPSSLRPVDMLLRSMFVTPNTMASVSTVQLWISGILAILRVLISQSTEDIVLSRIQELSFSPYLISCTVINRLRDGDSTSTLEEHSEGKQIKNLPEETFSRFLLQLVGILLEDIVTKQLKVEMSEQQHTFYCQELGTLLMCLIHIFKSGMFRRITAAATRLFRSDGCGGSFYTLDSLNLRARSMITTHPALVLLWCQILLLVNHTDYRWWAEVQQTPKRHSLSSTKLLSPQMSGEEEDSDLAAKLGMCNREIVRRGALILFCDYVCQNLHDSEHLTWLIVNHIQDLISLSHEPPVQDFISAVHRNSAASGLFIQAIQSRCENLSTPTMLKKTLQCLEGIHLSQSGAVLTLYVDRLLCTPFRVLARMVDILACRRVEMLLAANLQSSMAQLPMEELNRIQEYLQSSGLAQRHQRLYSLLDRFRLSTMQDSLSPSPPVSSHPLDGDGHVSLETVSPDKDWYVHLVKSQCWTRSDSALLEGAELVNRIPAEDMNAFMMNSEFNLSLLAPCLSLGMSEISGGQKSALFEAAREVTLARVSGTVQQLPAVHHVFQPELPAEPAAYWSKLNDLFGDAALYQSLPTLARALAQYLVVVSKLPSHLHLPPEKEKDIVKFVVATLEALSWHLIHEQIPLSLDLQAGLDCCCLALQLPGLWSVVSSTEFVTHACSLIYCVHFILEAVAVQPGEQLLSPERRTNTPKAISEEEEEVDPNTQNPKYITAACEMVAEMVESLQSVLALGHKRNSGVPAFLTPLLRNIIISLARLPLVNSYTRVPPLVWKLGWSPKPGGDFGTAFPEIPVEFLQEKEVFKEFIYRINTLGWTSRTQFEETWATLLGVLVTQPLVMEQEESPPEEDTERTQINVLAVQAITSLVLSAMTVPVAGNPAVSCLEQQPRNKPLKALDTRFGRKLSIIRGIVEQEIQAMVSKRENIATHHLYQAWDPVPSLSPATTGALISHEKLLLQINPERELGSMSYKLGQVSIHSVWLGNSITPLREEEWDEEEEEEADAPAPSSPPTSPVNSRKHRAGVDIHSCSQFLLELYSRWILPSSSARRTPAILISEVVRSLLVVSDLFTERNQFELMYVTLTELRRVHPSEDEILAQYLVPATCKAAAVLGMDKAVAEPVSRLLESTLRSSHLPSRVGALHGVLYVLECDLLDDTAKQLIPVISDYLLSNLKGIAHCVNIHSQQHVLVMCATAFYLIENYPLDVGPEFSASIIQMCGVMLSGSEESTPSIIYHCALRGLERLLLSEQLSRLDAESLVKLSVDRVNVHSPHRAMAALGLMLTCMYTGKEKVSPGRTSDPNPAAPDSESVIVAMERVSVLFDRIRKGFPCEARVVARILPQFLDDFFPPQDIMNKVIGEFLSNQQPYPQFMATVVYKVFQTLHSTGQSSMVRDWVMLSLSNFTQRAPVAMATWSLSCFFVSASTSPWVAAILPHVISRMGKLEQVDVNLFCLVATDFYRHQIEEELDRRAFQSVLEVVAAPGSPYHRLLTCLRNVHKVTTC

{"columns": ["molecule", "IC50"],
 "data": [
  ["COc1ccc2oc(-c3ccncc3C#N)c(C)c2c1", "< 100 nM"],
  ["COc1ccc2oc(-c3ncnc(I)c3C#N)cc2c1", "> 500 nM"],
  ["N#Cc1cnccc1-c1cc2cc(OCCO)ccc2o1", "100 to 500 nM"],
  ["COCOc1ccc2oc(-c3ccncc3C#N)cc2c1", "< 100 nM"],
  ["COc1ccc2nc(-c3ccccc3C#N)oc2c1", "< 100 nM"],
  ["COc1ccc2oc(-c3ncccc3C#N)cc2c1", "< 100 nM"],
  ["FCCOc1ccc2nc(-c3ccncc3Br)sc2c1", "< 100 nM"],
  ["COc1ccc2oc(-c3ccc(C#N)cn3)cc2c1", "< 100 nM"],
  ["COc1cc2cc(-c3ccccc3C#N)oc2cn1", "< 100 nM"],
  ["N#Cc1ccccc1-c1nc2cc3c(cc2o1)OCO3", "< 100 nM"],
  ["COCCOc1ccc2oc(-c3ccncc3C#N)cc2c1", "< 100 nM"],
  ["COc1ccc2nc(-c3ccc(C#N)cc3)sc2c1", "< 100 nM"],
  ["OCc1ccc2oc(-c3cccnc3)nc2c1", "> 500 nM"],
  ["COc1ccc2nc(-c3ccncc3C#N)oc2c1", "< 100 nM"],
  ["COc1ccc2oc(-c3cccc(Br)c3C#N)cc2c1", "< 100 nM"],
  ["COc1ccc2oc(-c3cccc4[nH]ncc34)cc2c1", "< 100 nM"],
  ["COc1ccc2oc(-c3ccncc3C)cc2c1", "100 to 500 nM"],
  ["COc1ccc2oc(-c3cccc4cn[nH]c34)cc2c1", "< 100 nM"],
  ["Nc1ccc2oc(-c3cccnc3)nc2c1 [2-(pyridin-3-yl)-1,3-benzoxazol-5-amine]", "> 500 nM"],
  ["N#Cc1cnccc1-c1nc2ccc(C(F)(F)F)cc2s1", "< 100 nM"],
  ["COc1ccc2oc(-c3cccc(CN(C)C)c3C#N)cc2c1", "100 to 500 nM"],
  ["COc1ccc2nc(-c3ccnc(C#N)c3)sc2c1", "< 100 nM"],
  ["COc1ccc2nc(-c3ccccc3OC)sc2c1", "100 to 500 nM"],
  ["COc1ccc2nc(-c3ccncc3C#N)ccc2c1", "100 to 500 nM"],
  ["COc1ccc2oc(-c3ccncc3)c(C#N)c2c1", "< 100 nM"],
  ["CN(CCO)c1ccc2oc(-c3ccncc3C#N)cc2c1", "< 100 nM"],
  ["CN(C)c1ccc2nc(-c3ccncc3C#N)sc2c1", "< 100 nM"]
]}
